# assay remarks: Cell viability of EL4 cells by trypan blue exclusion
# Type: cell-based
# setup conditions: mouse, el4 cells; compound 2, concentration 10^-M [sic], 48 hours; trypan blue exclusion; control 92
metric: viability at 48 h
Provide a numeric answer, followed by its unit.

Entry under review: COc1ccc2c(-c3ccc(OCCN4CCCC4)cc3)c(Cc3ccc(Cl)cc3)oc2c1 . Reported viability at 48 h?
87%

====

# assay remarks: Cell viability of EL4 cells by trypan blue exclusion
# Assay type: cell-based
# setup conditions: mouse, el4 cells; compound 2, 10^-6 M, 5 hours; trypan blue exclusion; control 96
metric: viability at 5 h, 1 µM (%)
// return numeric value only (unit: %, not printed)

Entry under review: COc1ccc2c(-c3ccc(OCCN4CCCC4)cc3)c(Cc3ccc(Cl)cc3)oc2c1 . Reported viability at 5 h, 1 µM?
91

====

# assay remarks: Cell viability of EL4 cells by trypan blue exclusion
# Type: cell-based
# setup conditions: mouse, el4 cells; compound 4, 10^-4 M, 5 hours; trypan blue exclusion; control 96
metric: viability at 5 h, 100 µM (%)
// return numeric value only (unit: %, not printed)

Entry under review: COc1ccc2c(-c3ccc(OCCN4CCOCC4)cc3)c(Cc3ccc(Cl)cc3)oc2c1 [Compound 4] . Reported viability at 5 h, 100 µM?
79

====

# System: MCF7 cells
# assay remarks: [3H]Thymidine incorporation (antiproliferative activity) by MCF7 cells
# Type: cell-based
# setup conditions: Homo sapiens, 48 hours, mean ± SEM of two experiments, read-out: IC50 MCF7 (inhibition of [3H]thymidine incorporation)
Listed here are molecules together with their documented IC50.

COc1ccc2c(-c3ccc(OCCN(C)C)cc3)c(Cc3ccc(Cl)cc3)oc2c1 = 5.03 µM
COc1ccc2c(-c3ccc(OCCN4CCCC4)cc3)c(Cc3ccc(Cl)cc3)oc2c1 = 2.3 µM
COc1ccc2c(-c3ccc(OCCN4CCOCC4)cc3)c(Cc3ccc(Cl)cc3)oc2c1 = 6.5 µM

Test system MCF7 cells; read-out IC50; what value for COc1ccc2c(-c3ccc(OCCN4CCCCC4)cc3)c(Cc3ccc(Cl)cc3)oc2c1 ?
2.05 µM
